Target: UniProt G1SFD9
Sequence (G1SFD9 1-524): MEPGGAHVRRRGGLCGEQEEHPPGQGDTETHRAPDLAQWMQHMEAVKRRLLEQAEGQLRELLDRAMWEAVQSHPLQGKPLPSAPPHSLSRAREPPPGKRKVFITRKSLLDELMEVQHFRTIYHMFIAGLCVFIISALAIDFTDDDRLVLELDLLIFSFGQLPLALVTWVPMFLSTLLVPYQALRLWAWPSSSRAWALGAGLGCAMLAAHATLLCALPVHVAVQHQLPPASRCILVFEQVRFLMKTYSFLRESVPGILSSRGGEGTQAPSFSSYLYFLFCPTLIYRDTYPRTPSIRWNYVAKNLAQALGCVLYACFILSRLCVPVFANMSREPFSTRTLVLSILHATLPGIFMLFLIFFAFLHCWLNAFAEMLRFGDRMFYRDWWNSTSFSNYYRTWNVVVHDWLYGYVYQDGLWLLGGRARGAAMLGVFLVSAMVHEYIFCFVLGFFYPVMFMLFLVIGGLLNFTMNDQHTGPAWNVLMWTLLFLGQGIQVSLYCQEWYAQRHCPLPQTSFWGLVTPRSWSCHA
Experiment: Inhibition against acyl coenzyme A:cholesterol acyltransferase derived from rabbit intestine microsomes
Decide using IC50 alone. Strictly below 200 nM: t. Equal to or above 200 nM: f.

Worked set:
CCCCCNC(=O)Nc1c(C)cccc1OCCCn1cnc(-c2cccc(NS(C)(=O)=O)c2)c1 ... f
CCCCCNC(=O)Nc1c(C)cccc1OCCCn1cnc(-c2ccccc2)c1CSC ... f
CCCCCNC(=O)Nc1c(OCCCn2cnc(-c3ccccc3)c2C)cccc1SC ... f
CCCCNC(=O)Nc1c(C)cccc1OCCCn1cnc(-c2ccccc2)c1Cl ... t
CCCCCNC(=O)Nc1c(N)cccc1OCCCn1cnc(-c2ccccc2)c1C ... t
CCCCCNC(=O)Nc1c(OC)cccc1OCCCn1cnc(-c2ccccc2)c1C ... t

Query: Consider the compound "CCCCCNC(=O)Nc1c(C)cccc1OCCCn1cnc2c1CCc1ccccc1-2" . Is its IC50 strictly less than 200 nM?
Reply: f

Query: Strictly below 200 nM in IC50? "CCCCCNC(=O)Nc1c(OCCCn2cnc(-c3ccccc3)c2C)cccc1C(C)C"
Reply: t

Query: Below 200 nM on IC50? Entry "CCCCCNC(=O)Nc1c(C)cccc1CSCCn1cnc(-c2ccccc2)c1C"
Reply: f

Query: For "CCCCCNC(=O)Nc1c(C)cccc1S(=O)(=O)CCCn1cnc(-c2ccccc2)c1C" , is the recorded IC50 below the cut-off of 200 nM?
Reply: f

Query: Strictly below 200 nM: is that where IC50 of "CCCCCNC(=O)Nc1c(C)cccc1C(=O)NCCn1cnc(-c2ccccc2)c1C" sits?
Reply: t
